- test.protocol: Pharmacokinetics and brain distribution in mice after single intraperitoneal injection
- Format: in vivo, male C57 mice
- condition.label: male, C57, brain and plasma, ip; mouse, 10 mg/kg intraperitoneal
outcome.measure: Kp

Suppose we examine the molecule C[C@H](NC(=O)Cn1nnc2ccccc2c1=O)c1ccc(OC(F)(F)F)cc1 [TAK-041, reference compound] ; what Kp value has been reported?
0.892

* * *

- study.target: GPR139 (Homo sapiens (Human), UniProt Q6DWJ6)
- Sequence (Q6DWJ6 whole entry, species assumed): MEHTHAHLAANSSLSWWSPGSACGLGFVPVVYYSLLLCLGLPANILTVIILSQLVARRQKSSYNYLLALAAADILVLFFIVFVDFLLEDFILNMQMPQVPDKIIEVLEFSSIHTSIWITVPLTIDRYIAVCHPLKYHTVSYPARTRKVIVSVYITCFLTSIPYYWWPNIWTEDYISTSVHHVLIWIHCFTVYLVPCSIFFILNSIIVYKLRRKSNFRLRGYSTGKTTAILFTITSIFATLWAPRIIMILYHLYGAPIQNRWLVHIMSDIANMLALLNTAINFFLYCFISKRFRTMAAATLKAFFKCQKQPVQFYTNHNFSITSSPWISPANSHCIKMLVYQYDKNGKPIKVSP
- test.protocol: Agonistic activity on GPR139, calcium flux detection assay (FLIPR) in transfected CHO-K1 cells
- condition.label: calcium flux, CHO-K1 cells transfected with GPR139 plasmid; mean ± standard deviation
outcome.measure: pEC50
A value of pEC50 is the negative decimal logarithm of a concentration given in moles per litre.

Cc1ccc([C@H](C)NC(=O)Cn2ncc3c(C)cc(C)n3c2=O)cc1 [Compound I-18] = 7.03
Cc1ccc2cnn(CC(=O)N[C@H](c3ccc(F)cc3)C(C)C)c(=O)n12 [Compound I-39] = 7.59
CC(C)[C@H](NC(=O)Cn1ncc2cccn2c1=O)c1ccc(F)cc1 [Compound I-37] = 6.92
C[C@H](NC(=O)Cn1ncc2cccn2c1=O)c1ccccc1 [Compound I-4] = 6.95
Cc1ccc2cnn(CC(=O)N[C@@H](C)c3ccccc3)c(=O)n12 [Compound I-14] = 7.89

Suppose we examine the compound Cc1cc(C)n2c(=O)n(CC(=O)N[C@@H](C)c3ccc(Cl)cc3)ncc12 [Compound I-22] ; what pEC50 value has been reported?
7.25

* * *

Listed next: entries and their corresponding Tmax.
- test.protocol: Pharmacokinetics and brain distribution in mice after single intraperitoneal injection
- Assay type: in vivo, male C57 mice
- condition.label: male, C57, ip; mouse, 10 mg/kg intraperitoneal, brain tissue, mean n=3; read-out: tmax Brain
The reply should be a number in min, with the unit left off.

Suppose we examine the molecule C[C@H](NC(=O)Cn1ncc2cccn2c1=O)c1ccc(C(F)(F)F)cc1 ; what Tmax value has been reported?
30

Suppose we examine the molecule C[C@H](NC(=O)Cn1nnc2ccccc2c1=O)c1ccc(OC(F)(F)F)cc1 [TAK-041, reference compound] ; what Tmax value has been reported?
30

Suppose we examine the molecule C[C@H](NC(=O)Cn1ncc2cccn2c1=O)c1ccc(F)cc1 ; what Tmax value has been reported?
30
